The measurements presented in this section are drawn from ChEMBL document CHEMBL1141623.

Each entry below carries its measured IC50, system: Mu-type opioid receptor (Homo sapiens, UniProt P35372).
Sequence (P35372 whole entry): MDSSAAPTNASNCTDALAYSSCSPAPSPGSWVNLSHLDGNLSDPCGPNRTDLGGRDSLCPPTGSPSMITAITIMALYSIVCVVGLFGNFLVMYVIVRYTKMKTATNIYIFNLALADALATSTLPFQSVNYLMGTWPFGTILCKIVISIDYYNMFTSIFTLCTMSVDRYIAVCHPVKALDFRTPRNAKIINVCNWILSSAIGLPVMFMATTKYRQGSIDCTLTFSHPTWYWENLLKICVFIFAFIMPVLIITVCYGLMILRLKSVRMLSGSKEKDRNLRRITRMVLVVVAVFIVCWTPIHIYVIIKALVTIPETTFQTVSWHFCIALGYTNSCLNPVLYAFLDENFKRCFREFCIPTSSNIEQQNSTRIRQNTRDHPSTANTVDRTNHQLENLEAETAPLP

CO[C@@]1(c2ccccc2)CCCC[C@H]1CN(C)C; > 10 µM
CCO[C@]1(c2cccc(OC)c2)CCCC[C@@H]1CN(C)C; > 10 µM

Attention now turns to another entry.
IC50 recorded for this compound, `CNC[C@H]1CCCC[C@]1(OC)c1cccc(OC)c1` , is > 10 µM

* * *

system_tested: Sodium-dependent noradrenaline transporter (Homo sapiens, UniProt P23975)
Sequence (P23975 whole entry): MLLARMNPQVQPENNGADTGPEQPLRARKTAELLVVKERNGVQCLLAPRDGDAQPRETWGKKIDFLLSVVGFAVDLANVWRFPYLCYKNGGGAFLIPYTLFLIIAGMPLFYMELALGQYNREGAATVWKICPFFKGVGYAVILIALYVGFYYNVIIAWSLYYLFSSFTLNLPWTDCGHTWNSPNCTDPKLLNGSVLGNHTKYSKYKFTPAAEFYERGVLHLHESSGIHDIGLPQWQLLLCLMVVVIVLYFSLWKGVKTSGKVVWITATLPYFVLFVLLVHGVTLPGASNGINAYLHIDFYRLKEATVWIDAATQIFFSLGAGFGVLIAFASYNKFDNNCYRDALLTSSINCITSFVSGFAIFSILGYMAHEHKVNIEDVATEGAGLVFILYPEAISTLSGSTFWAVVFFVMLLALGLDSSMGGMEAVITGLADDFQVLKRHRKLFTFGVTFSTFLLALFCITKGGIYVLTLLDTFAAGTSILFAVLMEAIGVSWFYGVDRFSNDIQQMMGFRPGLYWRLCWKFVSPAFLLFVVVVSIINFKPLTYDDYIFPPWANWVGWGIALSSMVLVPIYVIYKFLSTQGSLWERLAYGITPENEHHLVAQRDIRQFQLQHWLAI
measurement_notes: Inhibition of NET mediated norepinephrine uptake
measure_name: pIC50
One number for each entry, as −log10 of the molar value.

Quick request: pIC50 for each listed item, please.
1. COc1cccc([C@@]2(OC)CCCC[C@@H]2CN(C)C)c1 (racemic)
2. COc1cccc([C@@]2(OCCCO)CCCC[C@@H]2CN(C)C)c1
3. CO[C@]1(c2cccc(C#N)c2)CCCC[C@@H]1CN(C)C
4. CNC[C@H]1CCCC[C@]1(OC)c1cccc(O)c1 (stereo in doubt; 23)

1: 6.79; 2: 5.41; 3: 5.35; 4: 5.65

* * *

system_tested: Sodium-dependent serotonin transporter (Homo sapiens, UniProt P31645)
Sequence (P31645 whole entry): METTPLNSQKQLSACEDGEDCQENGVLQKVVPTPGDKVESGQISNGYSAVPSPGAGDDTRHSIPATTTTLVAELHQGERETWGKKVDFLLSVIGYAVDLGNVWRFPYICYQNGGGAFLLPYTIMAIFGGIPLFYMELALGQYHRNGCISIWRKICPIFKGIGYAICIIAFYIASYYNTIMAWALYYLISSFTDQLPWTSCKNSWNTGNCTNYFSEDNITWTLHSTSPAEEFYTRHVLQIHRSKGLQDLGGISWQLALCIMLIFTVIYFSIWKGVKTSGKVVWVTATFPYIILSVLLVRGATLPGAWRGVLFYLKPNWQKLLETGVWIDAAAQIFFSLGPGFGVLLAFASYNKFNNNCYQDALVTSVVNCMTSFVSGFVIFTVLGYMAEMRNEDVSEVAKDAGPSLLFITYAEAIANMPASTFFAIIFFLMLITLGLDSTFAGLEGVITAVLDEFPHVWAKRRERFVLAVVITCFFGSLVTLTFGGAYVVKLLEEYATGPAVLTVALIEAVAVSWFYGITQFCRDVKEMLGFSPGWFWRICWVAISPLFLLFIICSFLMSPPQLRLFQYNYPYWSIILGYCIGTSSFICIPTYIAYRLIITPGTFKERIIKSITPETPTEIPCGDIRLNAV
measurement_notes: Inhibition of SERT mediated 5-hydroxytryptamine uptake
Just a reminder that ties go to not satisfied: only IC50 strictly below 3000 nM counts as satisfied.

Solved entries (count: 3):
CO[C@]1(c2cccc(C#N)c2)CCCC[C@@H]1CN(C)C; not satisfied
CCCCO[C@]1(c2cccc(O)c2)CCCC[C@@H]1CN(C)C; satisfied
CCCO[C@]1(c2cccc(O)c2)CCCC[C@@H]1CN(C)C; satisfied

Here's the next entry for you.
Record `COc1cccc([C@@]2(OCCCO)CCCC[C@@H]2CN(C)C)c1` : is its IC50 strictly below 3000 nM?
satisfied
